# system_under_test: MIF (Homo sapiens)
# procedure_details: Nuclease assay of Example 3 (MIF inhibitory activity, Table 4)
# Format: biochemical
# settings: nuclease assay of Example 3
# Source text: A rapafucin library was synthesized as described in WO2017/136708 and Guo et al. (2018) Nat. Chem. 11:254-63. The hybrid macrocyclic library consisted of 45,000 compounds in pools of 15 individual compounds. The library compounds were screened for MIF inhibitory activity using a nuclease assay as detailed in FIG. 1 and below. […]
Documented (%) inhibition of MIF nuclease activity across a set of molecules
The reply should be a number in %, with the unit left off.

# example entries with known answers
COc1ccc(CC[C@H]2OC(=O)[C@@H]3CCCCN3C(=O)C(=O)C(C)(C)COC(=O)C=CCCN(C)C(=O)[C@@H]3CCCN3C(=O)[C@H](COC(C)(C)C)N(C)C(=O)C(c3ccccc3)NC(=O)[C@H](C)N(C)C(=O)COc3cccc2c3)cc1OC (stereo partly shown) [compound 102]
59.5
COc1ccc(CC[C@H]2OC(=O)[C@@H]3CCCCN3C(=O)C(=O)C(C)(C)COC(=O)C=CCCN(C)C(=O)[C@H](C(C)C)NC(=O)[C@H](COC(C)(C)C)N(C)C(=O)[C@@H](CC(C)C)NC(=O)CN(C)C(=O)COc3cccc2c3)cc1OC [compound 14]
11.2

// query For the molecule COc1ccc(CC[C@H]2OC(=O)[C@@H]3CCCCN3C(=O)C(=O)C(C)(C)COC(=O)C=CCCN(C)C(=O)[C@@H](CC(C)C)NC(=O)[C@H](C(C)C)N(C)C(=O)[C@@H](Cc3ccccc3)NC(=O)[C@H](CC(C)C)N(C)C(=O)CCC(=O)Nc3cccc2c3)cc1OC [compound 82] , what (%) inhibition of MIF nuclease activity is on record?
// result 8.5

// query For the molecule COc1ccc(CC[C@H]2OC(=O)[C@@H]3CCCCN3C(=O)C(=O)C(C)(C)COC(=O)C=CCCN(C)C(=O)[C@H](Cc3ccc4ccccc4c3)NC(=O)[C@H](COC(C)(C)C)N(C)C(=O)[C@H](Cc3ccc4ccccc4c3)NC(=O)[C@H](C)N(C)C(=O)COc3cccc2c3)cc1OC [compound 28] , what (%) inhibition of MIF nuclease activity is on record?
// result 66.6

* * *

Documented (%) inhibition of MIF nuclease activity across a set of compounds
# system_under_test: MIF (Homo sapiens, UniProt P14174)
# procedure_details: Nuclease assay of Example 3 (MIF inhibitory activity, Table 4)
# Format: biochemical
# Set-up: concentration or dose not given beside the values
# settings: nuclease assay of Example 3
The reply should be a number in %, with the unit left off.

# example entries with known answers
COc1ccc(CC[C@H]2OC(=O)[C@@H]3CCCCN3C(=O)C(=O)C(C)(C)COC(=O)C=CCCN(C)C(=O)[C@H](C)NC(=O)[C@H](Cc3ccccc3)N(C)C(=O)[C@@H](C)NC(=O)CN(C)C(=O)COc3cccc2c3)cc1OC [compound 62]
13.1
COc1ccc(CC[C@H]2OC(=O)[C@@H]3CCCCN3C(=O)C(=O)C(C)(C)COC(=O)C=CCCN(C)C(=O)[C@@H]3CCCCN3C(=O)[C@H](COC(C)(C)C)N(C)C(=O)C(c3ccccc3)NC(=O)[C@H](C)N(C)C(=O)COc3cccc2c3)cc1OC (stereo partly shown) [compound 92]
9.0
COc1ccc(CC[C@H]2OC(=O)[C@@H]3CCCCN3C(=O)C(=O)C(C)(C)COC(=O)C=CCCN(C)C(=O)[C@@H](CC(C)C)NC(=O)[C@H](Cc3ccccc3)N(C)C(=O)[C@@H](C)NC(=O)CN(C)C(=O)COc3cccc2c3)cc1OC [compound 67]
76.3

We now examine a further compound.
// query For the compound COc1ccc(CC[C@H]2OC(=O)[C@@H]3CCCCN3C(=O)C(=O)C(C)(C)COC(=O)C=CCCN(C)C(=O)[C@@H]3CCCN3C(=O)[C@H](COC(C)(C)C)N(C)C(=O)C(c3ccccc3)NC(=O)[C@H](C)N(C)C(=O)COc3cc(F)cc2c3)cc1OC (mixture of isomers) [compound 121] , what (%) inhibition of MIF nuclease activity is on record?
// result 71.2

* * *

Documented (%) inhibition of MIF nuclease activity across a set of compounds
# system_under_test: MIF (Homo sapiens, UniProt P14174)
# procedure_details: Nuclease assay of Example 3 (MIF inhibitory activity, Table 4)
# Format: biochemical
# Parameters: concentration or dose not given beside the values
# settings: nuclease assay of Example 3
The reply should be a number in %, with the unit left off.

COc1ccc(CC[C@H]2OC(=O)[C@@H]3CCCCN3C(=O)C(=O)C(C)(C)COC(=O)C=CCCN(C)C(=O)[C@@H]3CCCN3C(=O)[C@H](COC(C)(C)C)N(C)C(=O)[C@H](Cc3ccc(F)cc3)NC(=O)[C@H](C)N(C)C(=O)COc3cccc2c3)cc1OC
16.8

We now examine a further compound.
// query Return (%) inhibition of MIF nuclease activity measured with MIF (Homo sapiens, UniProt P14174) given this compound: COc1cc(OC)c(OC)cc1CC[C@H]1OC(=O)[C@@H]2CCCCN2C(=O)C(=O)C(C)(C)COC(=O)C=CCCN(C)C(=O)[C@@H]2CCCN2C(=O)[C@H](COC(C)(C)C)N(C)C(=O)C(c2ccccc2)NC(=O)[C@H](C)N(C)C(=O)COc2cccc1c2 (some centres unmarked)
// result 10.7

* * *

# system_under_test: MIF (Homo sapiens, UniProt P14174)
# Sequence (P14174 1-115): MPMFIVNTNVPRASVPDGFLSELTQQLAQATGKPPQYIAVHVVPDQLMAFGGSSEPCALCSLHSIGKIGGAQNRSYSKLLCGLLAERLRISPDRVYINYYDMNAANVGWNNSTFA
# procedure_details: Nuclease assay of Example 3 (MIF inhibitory activity, Table 4)
# Format: biochemical
# Parameters: concentration or dose not given beside the values
# settings: nuclease assay of Example 3
# Description: A rapafucin library was synthesized as described in WO2017/136708 and Guo et al. (2018) Nat. Chem. 11:254-63. The hybrid macrocyclic library consisted of 45,000 compounds in pools of 15 individual compounds. The library compounds were screened for MIF inhibitory activity using a nuclease assay as detailed in FIG. 1 and below. […]
Classification field: true = (%) inhibition of MIF nuclease activity at or over 30%; false = (%) inhibition of MIF nuclease activity under 30%.

These solved cases illustrate the format of a correct answer.
COc1ccc(CC[C@H]2OC(=O)[C@@H]3CCCCN3C(=O)C(=O)C(C)(C)COC(=O)C=CCCN(C)C(=O)[C@H](c3ccccc3)NC(=O)C(C(C)C)N(C)C(=O)[C@@H](Cc3ccccc3)NC(=O)[C@H](CC(C)C)N(C)C(=O)CCC(=O)Nc3cccc2c3)cc1OC (some centres unmarked)
false
COc1ccc(CC[C@H]2OC(=O)[C@@H]3CCCCN3C(=O)C(=O)C(C)(C)COC(=O)C=CCCN(C)C(=O)[C@H](Cc3ccc(F)cc3)NC(=O)[C@H](COC(C)(C)C)N(C)C(=O)C(c3ccccc3)NC(=O)[C@H](C)N(C)C(=O)COc3cccc2c3)cc1OC (some centres unmarked)
false

// query Does (%) inhibition of MIF nuclease activity meet or surpass 30% for COCC[C@@H]1NC(=O)[C@H](COC(C)(C)C)N(C)C(=O)C(c2ccccc2)NC(=O)CN(C)C(=O)COc2cccc(c2)[C@@H](CCc2ccc(OC)c(OC)c2)OC(=O)[C@@H]2CCCCN2C(=O)C(=O)C(C)(C)COC(=O)C=CCCN(C)C1=O (some centres unmarked) ?
// result false

// query Does (%) inhibition of MIF nuclease activity meet or surpass 30% for COc1ccc(CC[C@H]2OC(=O)[C@@H]3CCCCN3C(=O)C(=O)C(C)(C)COC(=O)C=CCCN(C)C(=O)[C@@H]3CCCN3C(=O)[C@H](COC(C)(C)C)N(C)C(=O)C(c3ccccc3)NC(=O)[C@H](C)N(C)C(=O)COc3cccc2c3)c(OC)c1OC (some centres unmarked) ?
// result false

// query Does (%) inhibition of MIF nuclease activity meet or surpass 30% for COc1ccc(CC[C@H]2OC(=O)[C@@H]3CCCCN3C(=O)C(=O)C(C)(C)COC(=O)C=CCCN(C)C(=O)[C@@H]3CCCN3C(=O)[C@H](COC(C)(C)C)N(C)C(=O)[C@H](Cc3ccc(O)cc3)N(C)C(=O)[C@H](C)NC(=O)COc3cccc2c3)cc1OC ?
// result false

// query Does (%) inhibition of MIF nuclease activity meet or surpass 30% for COc1ccc(CC[C@H]2OC(=O)[C@@H]3CCCCN3C(=O)C(=O)C(C)(C)COC(=O)C=CCCN(C)C(=O)[C@@H]3CCCN3C(=O)[C@H](COC(C)(C)C)N(C)C(=O)[C@H](Cc3ccc4ccccc4c3)NC(=O)[C@H](C)N(C)C(=O)COc3cccc2c3)cc1OC ?
// result true
